# System: OVCA420 (Ovarian Carcinoma)
# EXPERIMENT_DESCRIPTION: combination Emax (second highest fraction inhibited in the dose matrix, 72 h); higher = more inhibition; extreme values may be limits of the assay
Property: combination Emax; scope: individual compounds

{"COMPOUND": "CC(=O)Nc1cccc(-n2c(=O)n(C3CC3)c(=O)c3c(Nc4ccc(I)cc4F)n(C)c(=O)c(C)c32)c1 [Trametinib] + Cc1nc(-c2cn3c(n2)-c2ccc(-c4cnn(C(C)(C)C(N)=O)c4)cc2OCC3)n(C(C)C)n1 [Taselisib] (first compound max 1 µM, 7x7, partner max 10 µM)", "combination Emax": 0.917}
{"COMPOUND": "Cc1cc2ncnn2cc1Nc1ncc2c(n1)n(C1CCOCC1)c(=O)n2C [AZD7648] + CCN(CCO)CCCOc1ccc2c(Nc3cc(CC(=O)Nc4cccc(F)c4)[nH]n3)ncnc2c1 [AZD2811] (first compound max 10 µM, 7x7, partner max 1 µM)", "combination Emax": 0.232}
{"COMPOUND": "Cc1cc2ncnn2cc1Nc1ncc2c(n1)n(C1CCOCC1)c(=O)n2C [AZD7648] + CN(C)CCCOc1ccc(-c2ccc3ncc4c(c3c2)n(C2CCOCC2)c(=O)n4C)cn1 [AZD0156] (first compound max 10 µM, 7x7, partner max 1 µM)", "combination Emax": 0.262}
{"COMPOUND": "Cc1c2c(nn1C)CSCc1cc(n(C)n1)CSc1cc(c3ccccc3c1)OCCCc1c(C(=O)O)n(C)c3c-2c(Cl)ccc13 [AZD5991] + C=CCn1c(=O)c2cnc(Nc3ccc(N4CCN(C)CC4)cc3)nc2n1-c1cccc(C(C)(C)O)n1 [AZD1775] (first compound max 1 µM, partner max 1 µM)", "combination Emax": 0.399}
